- test_protocol: Antioxidant activity assessed as DPPH radical scavenging activity measured every minute over 45 mins by spectrophotometry
- Assay type: physicochemical
pIC50: −log10 of the molar value.
readout_label: pIC50

> print(dat)
                                   compound  observed.result
1  O=C(O)/C=C/c1ccc(O)c(O)c1 [CAFFEIC ACID]             4.66
2       COc1cc(/C=C/C(=O)O)ccc1O [FERULATE]             4.31
3  Cc1c(C)c2c(c(C)c1O)CCC(C)(C(=O)O)O2 (racemic) [TROLOX]             4.51

a. COc1cc(/C=C/C=C/C(=O)O)ccc1O
b. O=C(O)/C=C/C=C/c1ccc(O)c(O)c1 [DEMETHYLENATED PIPERIC ACID]
**Query** Compare the recorded pIC50 of a and b ; state which is larger. Reply briefly: the label of your chosen item.
**Result** b
(b: 4.74, a: 4.37)

Values from ChEMBL document CHEMBL3739425
